Data provenance is PubChem BioAssay (NCI).

# test summary: NCI Yeast Anticancer Drug Screen. Data for the sgs1 mgt1 strain (AID 161);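 also: 0% = growth of cultures given vehicle only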
# assay context: S. cerevisiae sgs1 mgt1 strain, at 50.0 µM (retest, dose inferred, filed as 5.0), hits give high values
Compounds without any hit were thinned out: in the full panel of roughly 79,000, 15% have a hit.
Each entry below carries its reported growth inhibition.
Field format: number, assumed %, no unit text.

>  <molecule>
CCOC(=O)CSC(=S)N1CCOCC1

>  <readout number>
-6

$$$$
>  <molecule>
COc1ccc(OC(=O)c2ccccc2)c2c1C(=O)C=CC2=O

>  <readout number>
21

$$$$
>  <molecule>
CCCN(CCC)c1ccc(Cc2ccc(N(CCC)CCC)cc2N)c(N)c1

>  <readout number>
99

$$$$
>  <molecule>
O=C(c1cc2c(C(F)(F)F)onc2c2ccccc12)C(F)(F)F

>  <readout number>
-2

$$$$
>  <molecule>
CCOC1(OCC)C(C)C(c2ccccc2)C(c2ccccc2)C1C (configuration not stated)

>  <readout number>
13

$$$$
>  <molecule>
COc1c(C(=O)/C(=N/Nc2ccccc2)C(C)=O)c(O)c(OC)c2occc12

>  <readout number>
82

$$$$
>  <molecule>
O=c1sc(=S)[nH]c2ccccc12

>  <readout number>
41

$$$$
>  <molecule>
CC(C)O[C@H]1N(C2CC(N=[N+]=[N-])C(CO)O2)C(=O)NC(=O)[C@]1(C)Br (some centres not stated)

>  <readout number>
56

$$$$
>  <molecule>
N#C/C(=C\NC(=S)Nc1cc(Cl)ccc1Cl)c1nc2ccccc2s1

>  <readout number>
4

$$$$
>  <molecule>
NC(Cc1ccc(O)cc1O)C(=O)O (configuration not stated)

>  <readout number>
-4

$$$$

growth inhibition lookup needed for OC1OCC(OCc2ccccc2)C(OCc2ccccc2)C1OCc1ccccc1 (configuration not stated) , thanks.
68

Query (molecule): S=C(S)NCCN1CCNC1=S ; field requested: growth inhibition
64

###

# test summary: NCI Yeast Anticancer Drug Screen. Data for the mec2-1 strain (AID 157)
# assay context: S. cerevisiae mec2-1 strain, at 5.0 µM (retest, dose inferred, filed as 0.5), hits give high values
This is part of a sample that, as a whole, favours compounds with a hit. Of some 79,000 tested, about 15% had one in any assay.
measured metric: growth inhibition (%)
Number only, in %; omit the unit.

Past entries and their recorded results:
>  <compound>
COc1ccc(/C=C2\SC(=S)N(/C=C(/C#N)C(=O)c3ccc4ccccc4c3)C2=O)cc1OC

>  <growth inhibition [%]>
-18

$$$$
>  <compound>
O=C(N/N=C/c1ccccc1[O-])c1ccccc1O.O=C(N/N=C/c1ccccc1[O-])c1ccccc1O.[Mn+2]

>  <growth inhibition [%]>
39

$$$$
>  <compound>
CCOC(=O)CSC(=S)N1CCOCC1

>  <growth inhibition [%]>
-2

$$$$

Shifting focus to the compound that follows.
# input compound: Cc1cccnc1NC(=S)Nc1ccccc1Cl ; wanted: its growth inhibition
12

###

# test summary: NCI Yeast Anticancer Drug Screen. Data for the mec2-1 strain (AID 157)
# assay context: S. cerevisiae mec2-1 strain, at 50.0 µM, hits give high values
Compounds without any hit were thinned out: in the full panel of roughly 79,000, 15% have a hit.
Below: a set of entries, each annotated with reported growth inhibition.
Express the result in % but write the number alone.

Reference set, count: 3
>  <compound>
O=C(c1ccc(OCC(O)CN2CCN(c3ccccc3)CC2)cc1)c1cc2ccccc2c2ccccc12 (stereo not given)

>  <units of measure>
%

>  <readout number>
82.8

$$$$
>  <compound>
O=C(CBr)N1c2ccccc2S(=O)(=O)c2ccc3ccccc3c21

>  <units of measure>
%

>  <readout number>
87

$$$$
>  <compound>
OCCc1ccc(-n2cnc3c(Nc4ccc(Cl)cc4)ncnc32)cc1

>  <units of measure>
%

>  <readout number>
43

$$$$

Recorded growth inhibition for O=C1OC2(CCCC2)OC1c1ccccc1 (stereo not given) , please?
-17.6

Recorded growth inhibition of O=C1C(Cl)=C(N2CCN(c3ccccn3)CC2)C(=O)c2ncccc21 , please.
88.8

Requested field: growth inhibition. Item: CCCCCCCCCCCC(=O)OC/C=C/COC(=O)c1ccccc1
-5.05

Would you kindly share the measured growth inhibition for CCc1cc(/C=C\c2ccnc3ccccc23)ccc1N(C)C ?
98.4

What does the data say about its growth inhibition? Entry: CC(C)=CCc1c2c(c3occ(-c4ccc(O)c(O)c4)c(=O)c3c1O)C=CC(C)(C)O2
94.1

Return reported growth inhibition; argument: CCCCCCCCCCCCCCCC[n+]1ccc(/C=C/c2ccccc2)cc1
98.8

Reported growth inhibition for C[C@]12CC[C@H](O)C[C@@H]1CC[C@@H]1[C@@H]2CC[C@]2(C)[C@@H](c3cc(C(F)(F)F)n[nH]3)CC[C@@H]12 : what is it?
61.6
